Assignment: determine reported gcPBM binding intensity (ln) for the given sequences.
Tested on: PfAP2-EXP AP2 domain (GST-tagged)
Test Protocol: gcPBM binding intensity (ln(normalized median fluorescence intensity)); higher = stronger DNA binding
In all, about 25,000 sequences were measured (“ln(normalized median fluorescence intensity)”: median about 8.6, highest 2% from about 10 on). The full list was thinned out, with the highest values kept by preference.
Format: numeric value only, no unit, no commentary.

Incoming: Look up gcPBM binding intensity (ln) with PfAP2-EXP AP2 domain (GST-tagged) for this sequence: ACTACATAATATTTACGTACCTAAAAAATTCTTATA [XGTACX_site509]
Outgoing: 8.51

Incoming: Queued: AATATATACATATATTGTACATATAGTTTCTTGCAT [XGTACX_site7871]
Outgoing: 8.61

Incoming: Queued: CCACACTTAAAATACACACACACCAAAAAAAAAAAA [CACACA_site2709]
Outgoing: 8.43

Incoming: Queued: TATAATAAATCGAACTGTACATATATATATATATAT [XGTACX_site7097]
Outgoing: 10.2

Incoming: Queued: TTTTATTATATATATTGTACATATATTTTTATTTTT [XGTACX_site1564]
Outgoing: 8.62

Incoming: Queued: ATATATATTATAATCTGTACATAAATATATAATAAA [XGTACX_site5425]
Outgoing: 8.39

Incoming: Queued: CATTTAAAATTTGTTTGTACATATATATATATATAT [XGTACX_site6729]
Outgoing: 10.2

Incoming: Queued: TTATATATTTATAAATGTACATATAATTTTTTTATA [XGTACX_site4696]
Outgoing: 8.3

Incoming: Queued: ATGTAGGTTAATTATTGTACGTAGGGGGTGTATATT [XGTACX_site3973]
Outgoing: 10.2

Incoming: Queued: AATGTAAAATATAAATGTACATATATATATATATAT [XGTACX_site5071]
Outgoing: 10.2

Incoming: Queued: AACATATAAATAAACTGTACATATATATATATATAT [XGTACX_site1056]
Outgoing: 10.1

Incoming: Queued: TTTTTATTTTTAAAGGCACACACATTTTTATTTTTA [CACACA_site8624]
Outgoing: 8.41

Incoming: Queued: AATATTTTCTGTAATACTTCTTTTCAATTTATTTCG [CACACA_negctrl_site1390]
Outgoing: 8.76

Incoming: Queued: TACAATATAAAATACACACGCACACCGAAAAAAAAA [CACACA_site5865]
Outgoing: 8.53

###

Tested on: PfAP2-EXP AP2 domain (GST-tagged)
Test Protocol: gcPBM binding intensity (ln(normalized median fluorescence intensity)); higher = stronger DNA binding
Whole data set: some 25,000 sequences, median “ln(normalized median fluorescence intensity)” near 8.6, cut for the highest 2% near 10. The entries come from a sample that favours the highest values as a whole.
Assignment: determine reported gcPBM binding intensity (ln) for the given sequences.

Incoming: Dear colleague, I am looking for the recorded gcPBM binding intensity (ln) of the following sequence: TTTAAAAATTTGATCAAACACACGTTGCATAAATTA [CACACA_site3945]
Outgoing: 8.87

Incoming: Queued: TTATTCTAAAAATATACACACAACAACAAACAAACA [CACACA_site1543]
Outgoing: 9.04

Incoming: Queued: TTTCTTTTACATATTTGTACATATATAAATTTATAT [XGTACX_site1787]
Outgoing: 8.91
